B1: DnaA initiator-associating protein DiaA (Escherichia coli (strain K12)), P66817 (parent)
chain: MQERIKACFTESIQTQIAAAEALPDAISRAAMTLVQSLLNGNKILCCGNGTSAANAQHFAASMINRFETERPSLPAIALNTDNVVLTAIANDRLHDEVYAKQVRALGHAGDVLLAISTRGNSRDIVKAVEAAVTRDMTIVALTGYDGGELAGLLGPQDVEIRIPSHRSARIQEMHMLTVNCLCDLIDNTLFPHQDD
partner: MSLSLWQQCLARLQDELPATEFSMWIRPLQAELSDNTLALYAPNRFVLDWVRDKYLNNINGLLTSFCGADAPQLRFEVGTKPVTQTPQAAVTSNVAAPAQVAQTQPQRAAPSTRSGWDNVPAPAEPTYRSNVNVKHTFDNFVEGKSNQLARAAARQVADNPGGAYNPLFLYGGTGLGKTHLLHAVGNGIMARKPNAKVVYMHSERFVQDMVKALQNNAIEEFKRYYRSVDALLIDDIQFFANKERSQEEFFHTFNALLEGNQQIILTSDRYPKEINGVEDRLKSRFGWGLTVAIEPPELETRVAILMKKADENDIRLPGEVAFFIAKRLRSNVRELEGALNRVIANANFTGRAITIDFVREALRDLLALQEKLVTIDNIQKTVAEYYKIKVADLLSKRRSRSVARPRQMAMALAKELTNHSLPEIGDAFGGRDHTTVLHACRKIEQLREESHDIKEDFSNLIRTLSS

- Variants of: B1
- condition-details: with dnaa_ecoli dnaA
assay-readout: effect of a mutation on the interaction

L190A disrupting interaction
N83D decreasing interaction
F191S disrupting interaction
L190P disrupting interaction

Request: State the recorded effect of a mutation on the interaction for this entry: "P72S"
Result: decreasing interaction

Request: State the recorded effect of a mutation on the interaction for this entry: "K101E"
Result: decreasing interaction

Request: State the recorded effect of a mutation on the interaction for this entry: "P72A"
Result: decreasing interaction

Request: State the recorded effect of a mutation on the interaction for this entry: "F191L"
Result: disrupting interaction
